- Assay comment: Approximate solubility (visual) in solvents
- Type: physicochemical
- Test conditions: aqueous with cosolvent or surfactant or cyclodextrin, thermodynamic from solid; acetone/water 50:50, 20° C.; read-out: Approx. solubility
Assay endpoint: solubility

O=C1N[C@H](c2cncc(C#Cc3ccccc3)c2)[C@@H](c2ccccc2Cl)O1 ... ~5000 µg/mL
